- target.system: rabbit aortic rings (Oryctolagus cuniculus, UniProt P34976)
- Construct: The thoracic aorta was removed, cleaned of adherent fat and connective tissue; from tissue; host or cells: thoracic aorta rings, endothelium removed, male New Zealand white rabbit
- Sequence (P34976 1-359): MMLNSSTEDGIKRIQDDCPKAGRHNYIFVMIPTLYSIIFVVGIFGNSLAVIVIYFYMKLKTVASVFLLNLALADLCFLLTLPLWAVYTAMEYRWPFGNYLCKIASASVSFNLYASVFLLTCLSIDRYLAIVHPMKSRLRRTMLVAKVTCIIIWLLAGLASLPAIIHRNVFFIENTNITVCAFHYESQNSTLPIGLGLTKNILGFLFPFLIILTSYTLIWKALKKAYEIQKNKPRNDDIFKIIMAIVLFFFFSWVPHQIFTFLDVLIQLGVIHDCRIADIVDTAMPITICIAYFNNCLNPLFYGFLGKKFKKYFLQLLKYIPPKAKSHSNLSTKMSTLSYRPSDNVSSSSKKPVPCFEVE
- test.description: Assay B: In Vitro Vascular Smooth Muscle-Response for AII (antagonist activity in rabbit aortic rings)
- Type: cell-based, rabbit (male New Zealand white)
- run.parameters: antagonist 10^-5 M for 5 min, AII challenge, second of two rabbits, read-out: pA2 (converted)
observable: Kb (nM)

Illustrative cases are given below, each with its answer.
INSERT INTO assay_data (input_smiles, target_system, numeric_result) VALUES
  ('CCCCc1nc(CCCC)n(Cc2ccc(-c3ccccc3-c3nnn[nH]3)nc2)n1', 'rabbit aortic rings (Oryctolagus cuniculus, UniProt P34976)', 5.75),
  ('CCCCc1nc(CCCC)n(Cc2ccc(-c3cnccc3-c3nnn[nH]3)cc2)n1', 'rabbit aortic rings (Oryctolagus cuniculus, UniProt P34976)', 67.6),
  ('CCCCc1nc(C(F)(F)CCC)n(Cc2ccc(-c3ccccc3-c3nnn[nH]3)nc2)n1', 'rabbit aortic rings (Oryctolagus cuniculus, UniProt P34976)', 31.6);

P: CCCCc1nc(C(=O)N(C)C(C)(C)C)nn1Cc1ccc(-c2ccccc2-c2nnn[nH]2)nc1
Q: CCCCc1nc(C(=O)NC)n(Cc2ccc(-c3ccccc3-c3nnn[nH]3)nc2)n1
Which record would sort first by descending Kb, P or Q ? Let me know the label of the one you choose.
Q

P: CCCc1nc(CCC)n(Cc2ccc(-c3ccccc3-c3nnn[nH]3)nc2)n1
Q: CCCCc1nc(CCCC)n(Cc2ccc(-c3ncccc3-c3nnn[nH]3)cc2)n1
Returns the identifier with the smallest measured Kb among P and Q . Identify your pick by its label.
P

a: CCCCc1nc(C(=O)N(C)C(C)(C)C)n(Cc2ccc(-c3ccccc3-c3nnn[nH]3)nc2)n1
b: CCCCc1nc(CCCC)n(Cc2ccc(-c3ccccc3-c3nnn[nH]3)cn2)n1
Would you let me know which has the greater Kb value, a or b ? I would appreciate it if you answered with the label of your choice.
a
